# key: entry, value: shrunken log2 fold change
# Tested on: Escherichia coli TOP10;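 note: peptides expressed intracellularly from a pBAD plasmid library in pooled LB shake-flask culture, induced with 0.3% L-arabinose, DNA abundance read by NGS, three biological replicates, DESeq2 with apeglm shrinkage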
# Experiment Notes: shrunken log2 fold change of peptide-encoding DNA abundance (4.5 h post-induction vs induction); higher = less antimicrobial activity (less host growth inhibition)
# Conditions Used: time post-induction: 4.5 h; library: site-saturation at positions 5, 18, 19, 20
Lab note: jot the number down without any unit.

Some entries whose results are on file:
Exam item: Any idea what shrunken log2 fold change was measured for RRIRTRPPRLPRPRPRPNAPPRP ?
Marked response: -0.0472

Exam item: Lookup RRIRKRPPRLPRPRPRPTNMPRP
Marked response: -0.155

Exam item: Moving on to RRIRFRPPRLPRPRPRPRCPPRP
Marked response: 0.262

New cases:
Exam item: Any idea what its shrunken log2 fold change is? The sequence is RRIRDRPPRLPRPRPRPEMQPRP
Marked response: -0.0247
